So I've got a bunch of molecules here, and I need their TGI values.
- System: SK-OV-3 ovarian
- method description: NCI tumour cell line growth inhibition, 48 h
Answer format: numeric, µM implied, no suffix.

**Q:** Quick one: TGI for Oc1ccc(C(O)(c2ccccc2)c2ccccc2)c2ccccc12 ?
**A:** 14.1

**Q:** Now try COc1ccccc1[As]=[As]c1ccccc1OC (centres undefined) .
**A:** 0.293

**Q:** Now try CCN(CC)CCN1c2nc3ccccc3cc2Sc2cc3ccccc3nc21 .
**A:** 12.9

**Q:** Now try COc1ccc2c(c1)C(OC)C1c3c(cc4c(c3-2)OCO4)CCN1C (centres undefined) .
**A:** 23.1

**Q:** Now try COCCc1n(Cc2ccc3ccccc3c2)c2ccccc2[n+]1Cc1ccc2ccccc2c1 .
**A:** 2.59

**Q:** Now try COC1C=COC2(C)Oc3c(C)c(O)c4c(O)c(c(C5SCCS5)c(O)c4c3C2=O)NC(=O)/C(C)=C\C=CC(C)C(O)C(C)C(O)C(C)C(OC(C)=O)C1C (centres undefined) .
**A:** 27.7
